Entry source: patent US20240190875A1

# test method notes: Caco-2 cell transport assay (bidirectional)
# conditions: human, Caco-2, pH 7.4, Mean Papp B to A, Table 3-2; Caco-2, 2.00 μM, 2 hrs, pH 7.40
measured parameter: Papp B→A at 2 h, 2 μM (×10⁻⁶ cm/s)
Give bare numbers, in ×10⁻⁶ cm/s.

Query: Return reported Papp B→A at 2 h, 2 μM; argument: C[C@H]1O[C@@H](O[C@H]2[C@@H](O)C[C@H](O[C@H]3[C@@H](O)C[C@H](O[C@H]4CC[C@@]5(C)[C@H](CC[C@@H]6[C@@H]5C[C@@H](O)[C@]5(C)[C@@H](C7=CC(=O)OC7)CC[C@]65O)C4)O[C@@H]3C)O[C@@H]2C)C[C@H](O)[C@@H]1O
Result: 14.3

====

For each of the compounds below, state its EC50.
# assay target: human GHSR (Homo sapiens (Human), UniProt Q92847)
# Sequence (Q92847 whole entry): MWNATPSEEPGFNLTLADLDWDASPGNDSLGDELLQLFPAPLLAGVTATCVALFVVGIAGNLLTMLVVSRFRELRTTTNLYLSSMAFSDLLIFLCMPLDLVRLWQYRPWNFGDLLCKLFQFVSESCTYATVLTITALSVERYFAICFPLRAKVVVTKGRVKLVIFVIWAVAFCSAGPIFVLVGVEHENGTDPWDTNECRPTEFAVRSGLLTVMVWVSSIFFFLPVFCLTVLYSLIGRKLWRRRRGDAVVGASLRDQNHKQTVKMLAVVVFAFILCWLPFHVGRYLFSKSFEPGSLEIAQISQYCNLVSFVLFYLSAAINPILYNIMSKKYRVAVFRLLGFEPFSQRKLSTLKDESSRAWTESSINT
# test method notes: Human GHSR agonist activity, FLIPR calcium fluorescence in human GHSR/CHO stable cell line
# Assay type: cell-based
Value and unit, in that order.

Use the examples below as a reference point.
>  <compound>
CCOP(=O)(OCC)OCOC(=O)NC(C)(C)C(=O)N[C@H](COCc1ccccc1)C(=O)N1CCC2(CC1)CN(S(C)(=O)=O)c1ccccc12 [Compound 10]

>  <measured parameter>
EC50

>  <reading>
0.152 µM

$$$$
>  <compound>
CC(OC(=O)NC(C)(C)C(=O)N[C@H](COCc1ccccc1)C(=O)N1CCC2(CC1)CN(S(C)(=O)=O)c1ccccc12)OC(=O)C(C)(C)C (stereo partly shown) [Compound 20]

>  <measured parameter>
EC50

>  <reading>
0.0377 µM

$$$$
>  <compound>
CCC(C)C(=O)OC(C)OC(=O)NC(C)(C)C(=O)N[C@H](COCc1ccccc1)C(=O)N1CCC2(CC1)CN(S(C)(=O)=O)c1ccccc12 (stereo partly shown) [Compound 12]

>  <measured parameter>
EC50

>  <reading>
0.0359 µM

$$$$

Now consider the entry below.
Query: I would be grateful if you could share the reported EC50 for CC(=O)OC(C)OC(=O)NC(C)(C)C(=O)N[C@H](COCc1ccccc1)C(=O)N1CCC2(CC1)CN(S(C)(=O)=O)c1ccccc12 (stereo partly shown) [Compound 14] .
Result: 0.0472 µM

====

# test method notes: Caco-2 cell transport assay (bidirectional)
# conditions: human, Caco-2, pH 7.4, Mean Papp A to B, Table 3-1; Caco-2, 2.00 μM, 2 hrs, pH 7.40
measured parameter: Papp A→B at 2 h, 2 μM (×10⁻⁶ cm/s)
Numbers only, in ×10⁻⁶ cm/s.

Query: Need Papp A→B at 2 h, 2 μM, item C[C@H]1O[C@@H](O[C@H]2[C@@H](O)C[C@H](O[C@H]3[C@@H](O)C[C@H](O[C@H]4CC[C@@]5(C)[C@H](CC[C@@H]6[C@@H]5C[C@@H](O)[C@]5(C)[C@@H](C7=CC(=O)OC7)CC[C@]65O)C4)O[C@@H]3C)O[C@@H]2C)C[C@H](O)[C@@H]1O [Digoxin]
Result: 0.0229

====

# test method notes: in vitro
# conditions: human, Caco-2, pH 7.4, Mean Papp A to B
measured parameter: Papp A→B at 2 h, 2 μM (×10⁻⁶ cm/s)
One number for each entry, in ×10⁻⁶ cm/s.

Query: Using the record for CC(=O)/C=C(/C)NC(C)(C)C(=O)N[C@H](COCc1ccccc1)C(=O)N1CCC2(CC1)CN(S(C)(=O)=O)c1ccccc12 , report its Papp A→B at 2 h, 2 μM.
Result: 0.198
